- Test system: A549/ATCC NSCLC
- protocol description: NCI-60 one-dose screen, 48 h
- experimental conditions: 10 µM unless noted
The panel holds about 83,000 compounds, 20% with a hit somewhere; the sample as a whole holds those more often. Activity calls are given as the source filed them. Rule for the calls: active = growth percent below 10; inactive = the rest.
Your response should consist of one outcome taken from active, inactive

Please state the recorded outcome for this molecule: Cc1c(C(=O)Nc2nc(-c3ccccc3)cs2)nnn1-c1ccccc1Br
inactive

Assay result, entry COc1c(Cl)ccc2c(-c3nc4cc(Cl)c(F)cc4s3)cc(=O)oc12 — outcome?
inactive

Recorded test call requested for C[C@]1(CO)C[C@@H](O)C[C@]2(C)[C@@H]1CC[C@@]13C[C@@H]4[C@@H](C[C@H]12)[C@]4(C)C3
inactive

Tell me the assay call for O=C(N/N=C/c1ccc(OC(F)F)c(OC2CCCC2)c1)c1cnn2c1NC(c1ccccc1)C2 (centres undefined) please.
inactive

Assay outcome for NC(=O)c1cc(Cl)ccc1NC(=O)COc1ccccc1 : what was it?
inactive

Tell me the recorded outcome of this test for N#Cc1c(O)c2c(c(O)c1C#N)C(=O)c1ccccc1C2=O .
inactive

I would be grateful if you could indicate the recorded call for COC(=O)[C@H]1CCCN1C(=O)[C@H]1CCCN1C(=O)[C@@H](Cc1c[nH]c2ccccc12)NC(=S)Nc1cc(C(F)(F)F)cc(C(F)(F)F)c1 .
inactive

Give the logged outcome of this assay for the following molecule: COc1cc(/C=C/C(=O)C(=Cc2ccc(F)c(F)c2)C(=O)/C=C/c2ccc(O)c(OC)c2)ccc1O
inactive

Lab log entry: Cl.Fc1c[c-]c(-c2ccccn2)c(F)c1.[Pt].c1ccc([PH+](CC[PH+](c2ccccc2)c2ccccc2)c2ccccc2)cc1 — outcome as called in the assay?
active

----------
- Tested on: RXF 393 renal
- protocol description: NCI-60 one-dose screen, 48 h
- experimental conditions: 10 µM unless noted
Compounds without any hit were thinned out: in the full panel of roughly 83,000, 20% have a hit. Activity calls are given as the source filed them. Rule for the calls: active = growth percent below 10; inactive = the rest.
Respond with a class label; see active, inactive

# outcome recorded in this test, key = CCOC(=O)c1cc2c(n(C)c1=O)-c1cnn(-c3ccc(OC)cc3)c1CC2
inactive

Which outcome did this test record for the molecule O=c1ccc2ccccc2o1 ?
inactive

What was the test verdict on O=C1N/C(=C\c2ccccc2)c2ncccc21 ?
inactive

Recorded call for O=[N+]([O-])c1ccc(O)c2ncccc12 ?
inactive

Recorded test call requested for O=C(N/N=C(\CS(=O)(=O)c1ccccc1)c1cc2ccccc2oc1=O)c1ccccc1
inactive

Recorded test outcome, item O=C1c2c(c3c4cc(Br)ccc4[nH]c3c3ccc4ccccc4c23)C(=O)N1O
inactive

What did the test return for CCOC(=O)c1cnn(CC(O)c2ccc(F)cc2)c1NC(=O)Nc1ccccc1F (configuration not stated) ?
inactive

Could you kindly confirm the outcome this assay logged for Cn1c2ccc(Cl)cc2c2nn(C(=O)c3ccccc3)c(=O)nc21 ?
inactive

Identify the outcome logged in this assay for the molecule shown: O=[N+]([O-])c1ccc2nc(N/N=C/c3ccc(O)cc3)sc2c1
inactive

// param item: Oc1ccccc1/C=N/Nc1nc2ccccc2s1 ; yields the recorded call
inactive

Please indicate how the test categorized NC(=S)N/N=C1\c2ccccc2-c2c(F)c(F)c(F)c(F)c21 .
inactive

Assay result, entry CCN1CCN(c2nc3ccccc3c3c(=O)c4cc(F)ccc4sc23)CC1 — outcome?
inactive

What did this assay record as the result for CCCCCCCCCCCCCCCC[N+]1(C)CCOCC1 ?
active

Per the assay record, what outcome was assigned to COc1ccc(/C=C2\Oc3cc(C)c(Cl)cc3C2=O)cc1OC ?
inactive

Which outcome did this test record for the molecule CCCCc1ccc(NC(=O)C(F)(F)F)cc1 ?
inactive

State the result this test recorded for CCC(C)Oc1cc(/C=N/NC(=O)c2cnn3c2NC(c2ccccc2)C3)ccc1OC (configuration not stated) .
inactive

Per the records of this test, what outcome belongs to Cc1nc2cc(Nc3nc(NCCO)nc(Nc4ccc(F)cc4)n3)ccc2n1Cc1ccccc1 ?
inactive

Identify the outcome logged in this assay for the molecule shown: O=c1[nH]c(=O)n(Cc2ccc(F)cc2)cc1F
inactive

Name the outcome recorded for COC(=O)[C@H]1CCCN1C(=O)[C@H]1CCCN1C(=O)[C@@H](Cc1c[nH]c2ccccc12)NC(=S)Nc1cc(C(F)(F)F)cc(C(F)(F)F)c1 in the assay.
inactive

Can you look up the reported call for COc1cccc(C2C3=C(COC3=O)N(CCO)c3cc4c(cc32)OCO4)c1 (configuration not stated) for me?
active

Entry Cn1c(=O)c(S(=O)(=O)c2ccccc2)cc2ccc3c(cnn3-c3ccc(Cl)cc3)c21 : call = ?
inactive

Dear colleague, could you share the recorded outcome for COCCOC1=C(Cl)C(=O)c2ccccc2C1=O when you have a moment?
inactive
